Provenance of the data: patent US9296734B2

- assay_target: Beta Secretase enzyme (BACE) (Homo sapiens (Human), UniProt P56817)
- Sequence (P56817 46-501): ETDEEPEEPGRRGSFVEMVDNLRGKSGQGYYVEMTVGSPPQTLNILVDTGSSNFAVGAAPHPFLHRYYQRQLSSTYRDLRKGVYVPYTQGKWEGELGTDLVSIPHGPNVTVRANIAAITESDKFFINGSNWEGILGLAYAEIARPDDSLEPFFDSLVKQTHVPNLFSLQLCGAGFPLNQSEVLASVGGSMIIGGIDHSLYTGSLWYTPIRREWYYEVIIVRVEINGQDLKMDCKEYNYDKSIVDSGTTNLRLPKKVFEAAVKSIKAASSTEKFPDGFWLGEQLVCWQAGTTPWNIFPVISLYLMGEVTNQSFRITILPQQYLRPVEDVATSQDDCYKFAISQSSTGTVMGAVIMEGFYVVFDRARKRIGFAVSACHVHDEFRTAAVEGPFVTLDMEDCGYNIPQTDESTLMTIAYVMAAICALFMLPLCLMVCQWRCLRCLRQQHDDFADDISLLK
- test_summary: In vitro enzymatic BACE FRET assay
- Assay type: biochemical
- conditions: average; read-out: BACE 1 FRET assay IC50
- Procedure: In Vitro Enzymatic BACE FRET (Fluorescence Resonance Energy Transfer) Assay (Enzyme Assay Data in the Example Table I) The assay buffer used in this screen is 0.05 M acetate, pH 4.2, 10% DMSO final, 100 uM genapol (which is a nonionic detergent, below its Critical Micelle Concentration). […] The FRET assay is terminated with by addition of Tris buffer, which raises the pH to neutrality, and the fluorescence is determined. […]

substance_smiles | IC50 [nM]
N#Cc1cnc(C(=O)Nc2cc(F)c(F)c([C@]3(CF)C[C@@H](C(F)(F)F)OC(N)=N3)c2)c(F)c1 | 38
CC#CCOc1ccc(C(=O)Nc2cc(F)c(F)c([C@]3(C)C[C@@H](C(F)(F)F)OC(N)=N3)c2)nc1 | 3
C[C@@]1(c2cc(NC(=O)c3ccc(C#N)cn3)cc(Cl)c2F)C[C@@H](C(F)(F)F)OC(N)=N1 | 23
N#Cc1ccc(C#Cc2ccc(F)c([C@]3(CF)C[C@@H](C(F)(F)F)OC(N)=N3)c2)nc1 | 509
C[C@@]1(c2cc(NC(=O)c3cnc(C(F)F)cn3)cc(Cl)c2F)C[C@@H](C(F)(F)F)OC(N)=N1 | 62
C#CCOc1cnc(C(=O)Nc2cc(C)c(F)c([C@]3(CF)C[C@@H](C(F)(F)F)OC(N)=N3)c2)cn1 | 1
Cc1cc(C#N)cnc1C(=O)Nc1cc(C)c(F)c([C@]2(CF)C[C@@H](C(F)(F)F)OC(N)=N2)c1 | 20
